Molecular target: human mPGES-1 (Homo sapiens, UniProt O14684)
Construct: made in house; host or cells: COS-1 cells (transient transfection; microsomal fraction used as enzyme)
Test: Test for mPGES-1 inhibitory activity (microsomal enzyme, PGE2 EIA)
Format: biochemical
Conditions: microsomes from COS-1 cells transfected with human mPGES-1 cDNA; substrate PGH2 1 μM; 4° C., 4 minutes; PGE2 measured by EIA; read-out: h mPGES1 IC50

# structureNotation, IC50
measured = [
    ("O=C(NCc1ccc(C(F)(F)F)c(-c2nc(C(F)(F)F)cc(=O)[nH]2)c1F)C1CCN(c2cccc(C(F)(F)F)c2)CC1", "< 1 nM"),
    ("O=C(NCc1ccc(C(F)(F)F)c(-c2nc(C(F)(F)F)cc(=O)[nH]2)c1F)C1CN(c2ccc(C(F)(F)F)cn2)C1", "< 1 nM"),
    ("CCc1nc(-c2c(C(F)(F)F)ccc(CNC(=O)[C@H]3CC[C@H](OCc4ccccc4Cl)CC3)c2F)[nH]c(=O)c1F", "< 1 nM"),
]

---

Biological target: human mPGES-1 (Homo sapiens, UniProt O14684)
Construct: made in house; host or cells: COS-1 cells (transient transfection; microsomal fraction used as enzyme)
Experiment: Test for mPGES-1 inhibitory activity (microsomal enzyme, PGE2 EIA)
Format: biochemical
Conditions: microsomes from COS-1 cells transfected with human mPGES-1 cDNA; substrate PGH2 1 μM; 4° C., 4 minutes; PGE2 measured by EIA; read-out: h mPGES1 IC50
pIC50: −log10 of the molar value.
Measured pIC50, listed per entry for reference.
quantityName: pIC50

# structureNotation, experimentalTarget, value
rows = [
    ("Cc1nc(-c2c(C(F)(F)F)ccc(CNC(=O)[C@H]3CC[C@H](OCc4cc(F)cc(Cl)c4)CC3)c2F)[nH]c(=O)c1F", "human mPGES-1 (Homo sapiens, UniProt O14684)", "> 9.00"),
    ("O=c1cc(C(F)(F)F)nc(-c2c(C(F)(F)F)ccc(CNC(=O)[C@H]3C[C@H](OCc4cccc(C(F)(F)F)c4)C3)c2F)[nH]1", "human mPGES-1 (Homo sapiens, UniProt O14684)", "> 9.00"),
    ("Cc1nc(-c2c(C(F)(F)F)ccc(CNC(=O)C3CCN(c4cccc(C(F)(F)F)c4)CC3)c2F)[nH]c(=O)c1F", "human mPGES-1 (Homo sapiens, UniProt O14684)", "> 9.00"),
]

---

Biological target: human mPGES-1 (Homo sapiens)
Construct: made in house; host or cells: COS-1 cells (transient transfection; microsomal fraction used as enzyme)
Sequence (O14684 1-152): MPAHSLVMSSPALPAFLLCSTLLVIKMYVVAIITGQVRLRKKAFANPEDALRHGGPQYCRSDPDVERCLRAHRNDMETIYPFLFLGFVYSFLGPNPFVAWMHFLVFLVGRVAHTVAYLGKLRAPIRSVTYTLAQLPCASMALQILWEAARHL
Experiment: Test for mPGES-1 inhibitory activity (microsomal enzyme, PGE2 EIA)
Assay type: biochemical
Details: microsomes of COS-1 cells transfected with human mPGES-1 cDNA; PGH2 1 μM; 4° C., 4 minutes; PGE2 by EIA; read-out: h mPGES1 IC50
quantityName: IC50

# molecule, value
records = [
    ("Cc1nc(-c2c(C(F)(F)F)ccc(CNC(=O)[C@H]3C[C@H](OCc4cccc(Cl)c4F)C3)c2F)[nH]c(=O)c1F [Example 225]", "< 1 nM"),
    ("O=c1cc(C(F)F)nc(-c2c(C(F)(F)F)ccc(CNC(=O)[C@H]3C[C@H](OCc4cccc(F)c4)C3)c2F)[nH]1 [Example 171]", "< 1 nM"),
    ("Cc1nc(-c2c(C(F)(F)F)ccc(CNC(=O)[C@H]3C[C@H](OCc4ccccc4Cl)C3)c2F)[nH]c(=O)c1F [Example 212]", "< 1 nM"),
]

---

Molecular target: human mPGES-1 (Homo sapiens)
Construct: made in house; host or cells: COS-1 cells (transient transfection; microsomal fraction used as enzyme)
Test: Test for mPGES-1 inhibitory activity (microsomal enzyme, PGE2 EIA)
Type: biochemical
Settings: microsomes of COS-1 cells transfected with human mPGES-1 cDNA; PGH2 1 μM; 4° C., 4 minutes; PGE2 by EIA; read-out: h mPGES1 IC50
pIC50: −log10 of the molar value.

# structureNotation, pIC50
data = [
    ("O=c1cc(C(F)(F)F)nc(-c2c(C(F)(F)F)ccc(CNC(=O)[C@H]3C[C@H](Oc4ccccc4Cl)C3)c2F)[nH]1", "> 9.00"),
    ("O=c1cc(C(F)F)nc(-c2c(C(F)(F)F)ccc(CNC(=O)[C@H]3C[C@H](OCc4ccccc4Cl)C3)c2F)[nH]1", "> 9.00"),
    ("O=c1cc(C(F)(F)F)nc(-c2c(C(F)(F)F)ccc(CNC(=O)[C@H]3C[C@H](OCc4ccc(Cl)cc4F)C3)c2F)[nH]1", "> 9.00"),
]

---

Target: human mPGES-1 (Homo sapiens, UniProt O14684)
Construct: made in house; host or cells: COS-1 cells (transient transfection; microsomal fraction used as enzyme)
Assay: Test for mPGES-1 inhibitory activity (microsomal enzyme, PGE2 EIA)
Assay type: biochemical
Conditions: microsomes from COS-1 cells transfected with human mPGES-1 cDNA; substrate PGH2 1 μM; 4° C., 4 minutes; PGE2 measured by EIA; read-out: h mPGES1 IC50

# structureNotation, experimentalTarget, IC50
data = [
    ("N#Cc1ccc(N2CCC(C(=O)NCc3ccc(C(F)(F)F)c(-c4nc(C(F)(F)F)cc(=O)[nH]4)c3F)CC2)c(Cl)c1", "human mPGES-1 (Homo sapiens, UniProt O14684)", "< 1 nM"),
    ("Cc1nc(-c2c(C(F)(F)F)ccc(CNC(=O)C3CCN(c4ncc(C(F)(F)F)cc4F)CC3)c2F)[nH]c(=O)c1F", "human mPGES-1 (Homo sapiens, UniProt O14684)", "< 1 nM"),
    ("O=C(NCc1ccc(C(F)(F)F)c(-c2nc(C(F)(F)F)cc(=O)[nH]2)c1F)C1CCN(c2cccc(Cl)c2)CC1", "human mPGES-1 (Homo sapiens, UniProt O14684)", "< 1 nM"),
    ("O=C(NCc1ccc(C(F)(F)F)c(-c2nc(C(F)(F)F)cc(=O)[nH]2)c1F)C1CCN(c2ccc(C(F)(F)F)cn2)CC1", "human mPGES-1 (Homo sapiens, UniProt O14684)", "< 1 nM"),
    ("O=C(NCc1ccc(C(F)(F)F)c(-c2nc(C(F)(F)F)cc(=O)[nH]2)c1F)C1CCN(c2ccc(Cl)c(Cl)c2)CC1", "human mPGES-1 (Homo sapiens, UniProt O14684)", "< 1 nM"),
    ("Cc1nc(-c2c(C(F)(F)F)ccc(CNC(=O)[C@H]3CC[C@H](OCc4ccccc4Cl)CC3)c2F)[nH]c(=O)c1F", "human mPGES-1 (Homo sapiens, UniProt O14684)", "< 1 nM"),
    ("O=C(NCc1ccc(C(F)(F)F)c(-c2nc(C(F)(F)F)cc(=O)[nH]2)c1F)C1CCN(c2ccc(F)c(Cl)c2)CC1", "human mPGES-1 (Homo sapiens, UniProt O14684)", "< 1 nM"),
    ("O=c1cc(C(F)(F)F)nc(-c2c(C(F)(F)F)ccc(CNC(=O)[C@H]3CC[C@H](OCc4ccc(Cl)cc4)CC3)c2F)[nH]1", "human mPGES-1 (Homo sapiens, UniProt O14684)", "< 1 nM"),
    ("CCc1cc(=O)[nH]c(-c2c(C(F)(F)F)ccc(CNC(=O)C3CCN(c4ccc5cccc(C)c5n4)CC3)c2F)n1", "human mPGES-1 (Homo sapiens, UniProt O14684)", "< 1 nM"),
    ("Cc1cccc2ccc(N3CCC(C(=O)NCc4ccc(C(F)(F)F)c(-c5nc(C(F)(F)F)cc(=O)[nH]5)c4F)CC3)nc12", "human mPGES-1 (Homo sapiens, UniProt O14684)", "< 1 nM"),
    ("O=c1cc(C(F)(F)F)nc(-c2c(C(F)(F)F)ccc(CNC(=O)[C@H]3C[C@H](OCc4cccc(Cl)c4)C3)c2F)[nH]1", "human mPGES-1 (Homo sapiens, UniProt O14684)", "< 1 nM"),
    ("O=c1cc(C(F)(F)F)nc(-c2c(C(F)(F)F)ccc(CNC(=O)[C@H]3CC[C@H](OCc4cc(F)cc(F)c4)CC3)c2F)[nH]1", "human mPGES-1 (Homo sapiens, UniProt O14684)", "< 1 nM"),
    ("O=c1cc(C(F)(F)F)nc(-c2c(C(F)(F)F)ccc(CNC(=O)[C@H]3CC[C@H](OCc4ccccc4Cl)CC3)c2F)[nH]1", "human mPGES-1 (Homo sapiens, UniProt O14684)", "< 1 nM"),
    ("O=C(NCc1ccc(C(F)(F)F)c(-c2nc(C(F)(F)F)cc(=O)[nH]2)c1F)C1CCN(c2cc(Cl)cc(Cl)c2)CC1", "human mPGES-1 (Homo sapiens, UniProt O14684)", "8.1 nM"),
    ("O=C(NCc1ccc(C(F)(F)F)c(-c2nc(C(F)(F)F)cc(=O)[nH]2)c1F)C1CCN(c2ccc(Cl)cn2)CC1", "human mPGES-1 (Homo sapiens, UniProt O14684)", "< 1 nM"),
    ("O=C(NCc1ccc(C(F)(F)F)c(-c2nc(C(F)F)cc(=O)[nH]2)c1F)C1CCN(c2ccc(OC(F)(F)F)cc2)CC1", "human mPGES-1 (Homo sapiens, UniProt O14684)", "0.61 nM"),
    ("O=C(NCc1ccc(C(F)(F)F)c(-c2nc(C(F)(F)F)cc(=O)[nH]2)c1F)C1CCN(c2cccc(C(F)(F)F)n2)CC1", "human mPGES-1 (Homo sapiens, UniProt O14684)", "4.9 nM"),
]
